Numbers sourced from patent US20210238260.

tested target: Factor X, P00742
Sequence (P00742 whole entry, looked up): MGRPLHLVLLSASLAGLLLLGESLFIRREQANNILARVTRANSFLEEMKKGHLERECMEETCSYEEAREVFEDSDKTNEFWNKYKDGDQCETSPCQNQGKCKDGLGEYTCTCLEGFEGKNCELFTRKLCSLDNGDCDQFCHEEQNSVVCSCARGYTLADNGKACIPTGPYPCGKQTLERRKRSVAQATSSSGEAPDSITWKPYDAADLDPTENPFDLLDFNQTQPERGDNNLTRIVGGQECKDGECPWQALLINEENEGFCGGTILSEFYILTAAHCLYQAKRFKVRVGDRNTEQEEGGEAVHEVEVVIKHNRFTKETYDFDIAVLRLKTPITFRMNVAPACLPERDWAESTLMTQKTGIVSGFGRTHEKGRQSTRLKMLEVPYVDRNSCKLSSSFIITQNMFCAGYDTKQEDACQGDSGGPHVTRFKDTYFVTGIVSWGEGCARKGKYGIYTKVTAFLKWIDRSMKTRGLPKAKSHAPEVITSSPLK
property name: kcat (s⁻¹)
Your answer is read as s⁻¹, so omit the unit and give the number.

[ask] I am curious: what kcat value has been reported for FIXa-R318Y/R338E/T343R/R403E/E410N (protein) chain 1: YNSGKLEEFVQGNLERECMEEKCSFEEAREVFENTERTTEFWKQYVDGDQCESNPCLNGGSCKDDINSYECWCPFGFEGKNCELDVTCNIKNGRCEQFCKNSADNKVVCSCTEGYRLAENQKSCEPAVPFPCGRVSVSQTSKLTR chain 2: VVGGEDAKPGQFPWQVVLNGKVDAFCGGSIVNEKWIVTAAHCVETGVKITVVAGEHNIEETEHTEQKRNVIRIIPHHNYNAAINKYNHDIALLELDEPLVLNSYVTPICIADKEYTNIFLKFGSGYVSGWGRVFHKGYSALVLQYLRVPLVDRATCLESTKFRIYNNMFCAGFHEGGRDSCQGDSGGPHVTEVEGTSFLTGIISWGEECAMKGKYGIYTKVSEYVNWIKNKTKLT ?
[reply] 11.8
